Each recorded value in this set is attributed to patent US20250163057A1.

- Tested on: Cullin-3 (CUL3) neddylation
- protocol_text: AlphaLISA assay for Cullin-3 (CUL3) neddylation in TF 1 cells
- Type: cell-based
- condition_details: Homo sapiens, TF-1, 3 h, 3 hours treatment
Measured IC50, listed per entry.

Field: example entries. Status: answers known.
compound: CCN1C(=O)[C@@H](NC(=O)c2cccc(C(F)(F)F)c2)[C@@H](C2CC2)c2c(C(=O)N3CC(F)(F)C[C@H]3C#N)nn(C3CCOCC3)c21 [Compound I-378]
recorded_value: ≤ 0.1 µM
//
compound: C/C=C/C(=O)Nc1nn(-c2ccccc2)c2c1[C@H](c1ccc(F)cc1)[C@H](NC(=O)c1cccc(C(F)(F)F)c1)C(=O)N2CC (racemic) [Compound I-62]
recorded_value: 0.1 to 1 µM
//
compound: CCN1C(=O)[C@@H](NC(=O)c2cccc(C(F)(F)F)c2)[C@@H](c2ccc(F)cc2)c2c(C(=O)N(C)[C@@H](C#N)CCN(C)C3COC3)nn(-c3ccccc3)c21 (single isomer, unassigned) [Compound I-311]
recorded_value: ≤ 0.1 µM

State, in one line, measured IC50 of CCN1C(=O)[C@@H](NC(=O)c2cccc(C(F)(F)F)c2)[C@@H](c2ccc(F)cc2)c2c(Cn3sccc3=O)nn(-c3ccccc3)c21 (racemic) [Compound I-192] 0.1 to 1 µM

Answer with the recorded IC50 of CCN1C(=O)[C@@H](NC(=O)c2cccc(C(F)(F)F)c2)[C@@H](C2CC2)c2c(C(=O)N3[C@H](C#N)C[C@H]4C[C@H]43)nn(C3CC3)c21 [Compound I-327] only. ≤ 0.1 µM

###

// pIC50 lookup, one value per entry
- target_entity: DCN1 (DCUND1) protein PONY domain (Homo sapiens (Human), UniProt Q96GG9)
- Sequence (Q96GG9 60-248): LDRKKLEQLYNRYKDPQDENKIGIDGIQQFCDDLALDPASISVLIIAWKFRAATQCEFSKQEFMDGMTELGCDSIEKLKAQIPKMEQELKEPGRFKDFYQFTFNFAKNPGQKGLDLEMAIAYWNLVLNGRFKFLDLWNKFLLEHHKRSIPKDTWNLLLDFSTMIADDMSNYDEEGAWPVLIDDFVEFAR
- protocol_text: TR-FRET assay, DCN1 binding with FAM-labeled probe
- condition_details: 24 hr after treatment with compound; read-out: TR FRET IC50 24 hr
pIC50: −log10 of the molar value.

compound: CCN1C(=O)[C@H](NC(=O)c2cccc(C(F)(F)F)c2)[C@H](c2ccc(F)cc2)c2c(C(=O)N3[C@H](C#N)C[C@H]4C[C@H]43)nn([C@@H]3CCOC3)c21 (single isomer, unassigned) [Compound I-562]
pIC50: 5.52 to 6.00
//
compound: CCN1C(=O)[C@@H](NC(=O)c2cccc(C(F)(F)F)c2)[C@@H](c2ccc(F)cc2)c2c(C/C=C/C(=O)NCCO)nn(-c3ccccc3)c21 (racemic)
pIC50: 5.52 to 6.00

Quote pIC50 reported for CCN1C(=O)[C@@H](NC(=O)c2cccc(C(F)(F)F)c2)[C@@H](C2CC2)c2c(C(=O)N(C)C(C)C#N)nn(-c3ccccc3)c21 (mixture of isomers) please. ≥ 6.70

Return the recorded pIC50 value; entry: `CCN1C(=O)[C@@H](NC(=O)C(C2CC2)C2CC2)[C@@H](C2CC2)c2c(C(=O)N3[C@H](C#N)C[C@H]4C[C@H]43)nn(C3CCOCC3)c21` 5.52 to 6.00

Identify measured pIC50 corresponding to CCN1C(=O)[C@@H](NC(=O)c2cccc(C(F)(F)F)c2)[C@@H](c2ccc(F)cc2)c2c(C(=O)N(CC#N)CC(=O)OC)nn(-c3ccccc3)c21 (stereo in doubt) ≥ 6.70

Using the record for `CCN1C(=O)[C@@H](NC(=O)c2cccc3cccnc23)[C@@H](C2CC2)c2c(C(=O)N3[C@H](C#N)C[C@H]4C[C@H]43)nn(C3CCOCC3)c21` , state its measured pIC50. ≥ 6.70

Identify pIC50 associated with the compound CCN1C(=O)[C@@H](NC(=O)c2cccc(C(F)(F)F)c2)[C@H](c2ccc(F)cc2)c2c(CNC(=O)C(C)C#N)nn(-c3ccccc3)c21 (some centres unmarked) 6.00 to 6.70

Give pIC50 for `CCN1C(=O)[C@@H](NC(=O)c2cccc(C(F)(F)F)c2)[C@@H](c2ccc(F)cc2)c2c(C(=O)N(C)[C@H](C#N)CCN(C)C3COC3)nn(C3CCOCC3)c21` ≥ 6.70

Please give measured pIC50 of the following entry: `CCN1C(=O)[C@@H](NC(=O)c2cccc(C(F)(F)F)c2)[C@@H](C2CCC2)c2c(C(=O)N3CCC[C@H]3C#N)nn(C3CCOCC3)c21` ≥ 6.70

Return value of pIC50 for input CCN1C(=O)[C@@H](NC(=O)c2cccc(C(F)(F)F)c2)[C@@H](c2ccc(F)cc2)c2c(NC(=O)C3=CCCC3)nn(-c3ccccc3)c21 (racemic) , no commentary. 6.00 to 6.70

Quick one: give measured pIC50 for `CCN1C(=O)[C@@H](NC(=O)c2cccc(C(F)(F)F)c2F)[C@@H](c2ccc(F)cc2)c2c(C(=O)N3CCC[C@H]3C#N)nn(C3CCOCC3)c21` ≥ 6.70
